- measurement.description: Drug solubility in water, DMSO and DCM (HPLC of filtered supernatant)
- condition.set: DCM, organic solvent or mixture, thermodynamic from solid
reported.property: solubility

{"columns": ["compound", "solubility"],
 "data": [
  ["CCN[C@H]1C[C@H](C)S(=O)(=O)c2sc(S(N)(=O)=O)cc21 [Dorzolamide, reference compound]", "< 1 mg/mL"]
]}

Problem: # input compound: CCN[C@H]1C[C@H](C)S(=O)(=O)c2sc(S(=O)(=O)NC(=O)/C=C/C(=O)OCC)cc21 [Compound 14, Dorzolamide-Ethylfumurate] ; wanted: its solubility
Solution: > 100 mg/mL

###

In this section we review reported solubility values for a set of compounds.
- measurement.description: Drug solubility in water, DMSO and DCM (HPLC of filtered supernatant)
- condition.set: water, thermodynamic from solid

Problem: # input compound: CCN[C@H]1C[C@H](C)S(=O)(=O)c2sc(S(N)(=O)=O)cc21 [Dorzolamide, reference compound] ; wanted: its solubility
Solution: > 50 mg/mL

Problem: # input compound: CC(C)(C)NC[C@@H](COc1nsnc1N1CCOCC1)OC(=O)/C=C\C(=O)O [Compound 7, Timolol-O-Maleate] ; wanted: its solubility
Solution: > 50 mg/mL

Problem: # input compound: C=C(CC)C(=O)c1ccc(OCC(=O)O[C@@H](C)C(=O)O[C@@H](C)C(=O)O[C@@H](C)C(=O)O[C@@H](C)C(=O)O[C@@H](C)C(=O)O[C@@H](C)C(=O)OCC)c(Cl)c1Cl ; wanted: its solubility
Solution: < 0.1 mg/mL

Problem: # input compound: CCOC(=O)CCC(=O)O[C@@H](CNC(C)(C)C)COc1nsnc1N1CCOCC1.O=C(O)/C=C\C(=O)O [Compound 5, Timolol-O-Ethylsuccinate Maleate] ; wanted: its solubility
Solution: 12.5 mg/mL

Problem: # input compound: C=C(CC)C(=O)c1ccc(OCC(=O)O[C@@H](C)C(=O)O[C@@H](C)C(=O)O[C@@H](C)C(=O)O[C@@H](C)C(=O)O[C@@H](C)C(=O)O[C@@H](C)C(=O)O[C@@H](C)C(=O)O[C@@H](C)C(=O)OCC)c(Cl)c1Cl ; wanted: its solubility
Solution: < 0.1 mg/mL

###

- measurement.description: Drug solubility in water, DMSO and DCM (HPLC of filtered supernatant)
- condition.set: water, thermodynamic from solid
Where a name gives a salt, the structure may show the parent alone.
reported.property: solubility

{"columns": ["compound", "solubility"],
 "data": [
  ["CC(C)(C)NC[C@@H](COc1nsnc1N1CCOCC1)OC(=O)CCC(=O)O [Compound 4]", "> 50000 µg/mL"],
  ["CCOC(=O)/C=C\\C(=O)O[C@@H](CNC(C)(C)C)COc1nsnc1N1CCOCC1.O=C(O)/C=C\\C(=O)O [Compound 8, Timolol-O-Ethylmaleate-Maleic Acid]", "< 1000 µg/mL"],
  ["CCOC(=O)/C=C/C(=O)O[C@@H](CNC(C)(C)C)COc1nsnc1N1CCOCC1 [Compound 17, Timolol-O-Ethylfumurate]", "< 1000 µg/mL"],
  ["CCOC(=O)CCC(=O)O[C@@H](CNC(C)(C)C)COc1nsnc1N1CCOCC1.Cl [Compound 6, Timolol-O-Ethylsuccinate HCL]", "6250 µg/mL"],
  ["CCCCCCCCCCCCOC(=O)/C=C/C(=O)O[C@@H](CNC(C)(C)C)COc1nsnc1N1CCOCC1 [Compound 12, Timolol-O-Laurylfumurate-Maleate]", "< 1000 µg/mL"],
  ["C=C(CC)C(=O)c1ccc(OCC(=O)O[C@@H](C)C(=O)O[C@@H](C)C(=O)OCC)c(Cl)c1Cl [Compound 2]", "< 1000 µg/mL"]
]}

Problem: # input compound: C=C(CC)C(=O)c1ccc(OCC(=O)O[C@@H](C)C(=O)O[C@@H](C)C(=O)O[C@@H](C)C(=O)O[C@@H](C)C(=O)OCC)c(Cl)c1Cl [Compound 1] ; wanted: its solubility
Solution: < 1000 µg/mL

Problem: # input compound: CCN[C@H]1C[C@H](C)S(=O)(=O)c2sc(S(=O)(=O)NC(=O)/C=C/C(=O)OCC)cc21 [Compound 14, Dorzolamide-Ethylfumurate] ; wanted: its solubility
Solution: < 1000 µg/mL

Problem: # input compound: CCOC(=O)/C=C\C(=O)OC(CNC(C)(C)C)COc1nsnc1N1CCOCC1 (stereo not drawn) [Compound 18, Timolol-O-Ethyl Maleate] ; wanted: its solubility
Solution: > 25000 µg/mL
